// values below are reported pIC50
Biological target: PKB-PIF fusion protein (Homo sapiens)
Sequence (P31751 with tags, fused parts or gaps limits assumed): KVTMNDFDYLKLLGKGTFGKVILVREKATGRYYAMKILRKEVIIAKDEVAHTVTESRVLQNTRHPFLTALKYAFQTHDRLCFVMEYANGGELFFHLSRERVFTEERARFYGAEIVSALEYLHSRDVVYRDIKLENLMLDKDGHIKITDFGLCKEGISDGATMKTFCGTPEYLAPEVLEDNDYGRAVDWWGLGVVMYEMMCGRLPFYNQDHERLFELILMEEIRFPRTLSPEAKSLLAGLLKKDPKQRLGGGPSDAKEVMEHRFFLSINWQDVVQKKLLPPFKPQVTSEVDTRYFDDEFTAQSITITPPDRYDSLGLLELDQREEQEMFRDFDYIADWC
Test: Measurement of PKB kinase inhibitory activity (IC50), radiometric filter plate assay
Conditions: 0.6 nM enzyme, 30 μM ATP, 25 μM AKTide-2T substrate, 20 minutes
pIC50: −log10 of the molar value.

# compound CNC[C@@H](c1ccc(Cl)cc1)c1ccc(-c2cn[nH]c2)cc1 [Example 22] ; its pIC50 = > 6.00

# compound CNCC(c1ccccc1)c1ccc(-c2c[nH]nc2C)nc1 (centres unmarked) [Example 60] ; its pIC50 = > 5.30
